Hello, the source for this data is ChEMBL document CHEMBL1132145, in case you need it.

compounds and their reported Efficiency
- System: Monkey
- EXPERIMENT NOTES: The compound was tested in vivo for the iron clearing activity against non -iron-overloaded Cebus apella monkey at a concentration of 150 uM/Kg
- Assay type: functional

>  <COMPOUND>
O=C(O)[C@H]1CSC(c2ccc(O)cc2O)=N1

>  <Efficiency / %>
4.2

$$$$
>  <COMPOUND>
C[C@]1(C(=O)O)CSC(c2ncccc2O)=N1 [DESFERRITHIOCIN]

>  <Efficiency / %>
16.1

$$$$
>  <COMPOUND>
O=C(O)[C@H]1CSC(c2ncccc2O)=N1

>  <Efficiency / %>
4.8

$$$$
>  <COMPOUND>
O=C(O)[C@@H]1CSC(c2ncccc2O)=N1

>  <Efficiency / %>
0.5

$$$$
